This section presents binders with their documented pIC50 values.
- assayedSystem: T1, SARS-CoV-2 스파이크 S1-mFc (SARS-CoV-2, UniProt P0DTC2 16-685)
- T1 construct: range 16-685
- runDescription: competition ELISA: S1-mFc on coated ACE2-His
// pIC50 here means minus log10 of the molar concentration (mol/L)

Below, 10 binders whose answers are already recorded.
binder: SA3779 (antibody, V domains shown) VH: QVQLVESGGGVVQPGRSLRLSCAASGFTFSSYAMHWVRQAPGKGLEWVAVISYDGSNKYYADSAKGRFTISRDNSKNTLYLQMNSLRAEDTAVYYCARRGHYYDSSGYLYWGHGTLITVSS VL: DIQMTQSPSSLSASVGDRVTITCRASQRIATYLHWYQQKPGRAPKLLIYAASSLQTGVPSRFSGSGSGTDFTLTINSLQPEDFATYYCQQSYAIPYTFGQGTKLEIK
observedValue: 8.39

binder: SA4050 (antibody, V domains shown) VH: QVQLVESGAEVKKPGASVKVSCKASGYTFTGYFIHWVRQAPGQGLEWMGWINPNSGGTNYAQKFQGRVTMTRDTSISTAYMELSRLRSDDTAVYYCARVPHLSGYYYEGVLGYFDYWGQGTLVTVSS VL: QSALTQPASVSGSPGQSITISCTGTSIDIGSYNFVSWYQRHPGKAPRLLIYDVSDRPSGVSNRFSGSKSANTASLTISGLQAEDEADYYCSSYTSSSLWVFGGGTKLTVL
observedValue: 8.84

binder: SA4053 (antibody, V domains shown) VH: EVQLVQSGGGLVQPGGSLRLSCADSGFTFSSYWMSWVRQVPGKGLEWVANIKQDGSEKYYVDSVKGRFTISRDNAKNSLYLQMNSLRAEDTAVYYCARDVGRGYCSSTSCYRFGGREDFFDYWGQGTLVTVSS VL: QLVLTQPPSVSAAPGQRVTISCSGSFSNVGNNFVSWYRHLPGTAPELLIYDNNQRPSGIPDRFSASKSGTSATLAITGLHTGDEADYYCGTWDTSLSGVVFGGGTKLTVL
observedValue: 7.66

binder: SA4056 (antibody, V domains shown) VH: QVQLQESGGGLVQPGGSLRLSCAASVITVSSNYMSWVRQAPGKGLEWVSVIYPGGSTYYADSVKGRFTISRDKSKNTLYLQMNSLRAEDTAVYYCARDLDIVGGMDVWGQGTTVTVSS VL: DIQMTQSPSTLSASVGDRVTITCRASQSISRWLAWYQQKPGQAPKLLIYAASTLQSGVPSRFSGSGSGTEFTLTISSLQPDDFATYYCQQYDSYPRTFGQGTKVDIK
observedValue: 8.85

binder: SA4055 (antibody, V domains shown) VH: EVQLVQSGGGLVQPGGSLRLSCAASVITVSSNYMSWVRQAPGKGLEWVSVIYPGGSTYYADSVKGRFTISRDKSKNTLYLQMNSLRAEDTAVYYCARDLDIVGGMDVWGQGTTVTVSS VL: QSALTQPASVSGSPGQSITISCTGTSSDVGDYNLVSWYQQHPGKAPKVMIYDVSHRPSGVSNRFSGSKSGNTASLTISGLQAEDEADYYCSSYTSSTTVVFGGGTKLTVL
observedValue: 8.73

binder: SA4044 (antibody, V domains shown) VH: EVQLVQSGGGLIQPGGSLRLSCAASGFTVSSNYMSWVRQAPGKGLEWVSVIYSGGSTYYADSVKGRFTISRDNSKNTLHLQMNSLRAEDTAVYYCARDLPQFDGFDYWGQGTLVTVSS VL: QSALTQPPSLSVAPGRTARITCGGNNIGSKSVNWYQHMPGQAPVLVIYSDTDRPSGIPERVSGSKSGNTATLSISRVEAGDEADYYCQVWDSTTDHVVFGGGTKLTVL
observedValue: 7.87

binder: SA3838 (antibody, V domains shown) VH: QVQLVESGAEVKKPGASVRVSCKISGYIFTELSIHWVRQAPGKGLEWMGGFDPEEGKTIYAQKFQGRVTMTEDTSTDTAYMELSSLRSEDTAVYYCAKIGHLGDFWYWGQGTLITVSS VL: QSALTQPASVSGSPGQSITISCTGTTSDIGSYDYVSWYQQHPGKAPKLIIYGVTRRPSGVSNRFSGSKSGNTASLTISRLLTEDEAEYYCATYTSSATYVFGTGTKVTVL
observedValue: 8.92

binder: SA4040 (antibody, V domains shown) VH: EVQLVQSGAEVKKPGASVKVSCKASGYTFTGYYMHWARQAPGQGLEWMGWINPNSGGTNYAQKFQGRVTMTRDTSITTAYMELSRLTSDDTAVYYCARDQAFSMVRGVTDYWGQGTLVTVSS VL: QSALTQPPSASGSPGQSVIISCTGSSSDVGGYNYVAWYQQYPGAAPKLIISEVTKRPSGVPDRFSGSKSGNTASLTISGLQAEDEANYYCSSYAGDNTWIFGGGTKLTVL
observedValue: 8.51

binder: SA3755 (antibody, V domains shown) VH: QMQLVESGGGVVQPGGSLRLSCAASGFTFDDHTMHWVRQAPGKGLEWVSLISWDGGSTYYADSVKGRFTISRDNSKNSLYLQMNSLRAEDTAVYYCTRDASRRPGDGGYDFDVWGQGTQVTVSS VL: QAVVTQEPSLTVSPGGTVTLTCGSSTGTVTRGHWPYWFQQKPGQAPRTLIYDTDNKHSWTPARFSGSLLGGKAALTLSGAQPEDEADYYCLLSYSDSRVFGTGTKVTVL
observedValue: 8.39

binder: SA3827 (antibody, V domains shown) VH: QVQLVESGGTLVQPGRSLRLSCAASGFTFSSYAMHWVRQAPGKGLEWVAVISYDGSNKYYADSVKGRFTISRDNSKNTLYLQMNSLRAEDTAVYYCARRGHYYDSSGFLYWGQGTLVTVSS VL: DIQMTQSPSSLSASVGDRVTITCRASQSISTYLSWYQQKPGKAPKLLIYAASNLQSGVPSRFSASGSGTDFTLTISSLQPEDFATYYCQQSYNTPRTFGQGTKVEIK
observedValue: 9.21

# evaluate next
Consider the binder SA3902 (antibody, V domains shown) VH: QVQLVQSGAEVRQPGASVKVSCKTSGYAFSYYHIHWVRQAPGQGLEWMGLINPGSGGTNYAQKFQGRVTLTRDTSTSTVYMDLTGLRSEDTAVYYCAGSEQPHYYANGAYRVWGQGTLVTVSS VL: DIQMTQSPSTLSASVGDRVTITCRASQSISSYLNWYQQKPGKAPKLLIYEVSTLESGVPSRFSGSRSGTEFTLTISSLQPDDFATYYCQQYDTFGGGTKVEIK and give its measured pIC50.
8.41
